Target: C-C chemokine receptor type 5 (Homo sapiens)
Sequence (P51681 whole entry): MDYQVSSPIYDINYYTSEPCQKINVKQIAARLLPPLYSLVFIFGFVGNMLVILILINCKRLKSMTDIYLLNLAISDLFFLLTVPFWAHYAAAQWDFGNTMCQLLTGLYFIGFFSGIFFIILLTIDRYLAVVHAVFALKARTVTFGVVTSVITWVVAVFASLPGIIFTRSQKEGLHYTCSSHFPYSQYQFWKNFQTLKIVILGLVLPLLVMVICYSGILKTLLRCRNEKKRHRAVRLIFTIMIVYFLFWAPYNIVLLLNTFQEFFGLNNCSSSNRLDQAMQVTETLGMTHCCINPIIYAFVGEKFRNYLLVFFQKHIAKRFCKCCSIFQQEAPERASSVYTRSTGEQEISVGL
Test: Displacement inhibition of 125-I labeled MIP-alpha from CCR5 receptor expressed on CHO cell membranes
Measured Metric: pIC50
Give bare numbers, as −log10 of the molar value.

Go through the list and state pIC50 for each entry.
1. C=CCN(c1ccncc1)C1CCN(C[C@H]2CN(C(=O)C3CCCCC3)C[C@@H]2c2ccccc2)CC1
2. CCCN(c1ccccn1)C1CCN(C[C@H]2CN(C(=O)C3CCCCC3)C[C@@H]2c2ccccc2)CC1

[7.18, 7.92]

Please look at the items below and tell me pIC50 for each one, in order.
1. CCCN(c1ncccn1)C1CCN(C[C@H]2CN([C@@H](C(=O)O)C3CCCCC3)C[C@@H]2c2cccc(F)c2)CC1
2. O=C(O)[C@@H](CC1CCC1)N1C[C@H](CN2CCC(N(CC3CC3)c3ncccn3)CC2)[C@@H](c2cccc(F)c2)C1
3. CCCN(c1ccccn1)C1CCN(C[C@H]2CN([C@@H](C(=O)O)C3CCCCC3)C[C@@H]2c2ccccc2)CC1
4. CCCN(c1ccncn1)C1CCN(C[C@H]2CN([C@H](CC3CCC3)C(=O)O)C[C@@H]2c2cccc(F)c2)CC1
5. CCN(c1ncccn1)C1CCN(C[C@H]2CN([C@H](CC3CCC3)C(=O)O)C[C@@H]2c2cccc(F)c2)CC1
6. CCCN(c1ccccn1)C1CCN(C[C@H]2CN(C(=O)C3CCC3)C[C@@H]2c2ccccc2)CC1
7. CCCN(c1cncnc1)C1CCN(C[C@H]2CN([C@H](CC3CCC3)C(=O)O)C[C@@H]2c2cccc(F)c2)CC1
8. CCCN(c1nccc(C(F)(F)F)n1)C1CCN(C[C@H]2CN([C@H](CC3CCC3)C(=O)O)C[C@@H]2c2cccc(F)c2)CC1

1. 8.80
2. 8.96
3. 8.41
4. 8.92
5. 8.82
6. 8.00
7. 8.77
8. 8.92

Each compound below has a recorded value; state its pIC50.
1. C=CCN(c1cccnc1)C1CCN(C[C@H]2CN(C(=O)C3CCCCC3)C[C@@H]2c2ccccc2)CC1
2. O=C(C1CCCCC1)N1C[C@H](CN2CCC(N(CC3CC3)c3ccccn3)CC2)[C@@H](c2ccccc2)C1
3. CCCN(c1ncccn1)C1CCN(C[C@H]2CN([C@H](CC3CCC3)C(=O)O)C[C@@H]2c2cccc(F)c2)CC1
4. C=CCN(c1ccc(C(F)(F)F)cn1)C1CCN(C[C@H]2CN(C(=O)C3CCCCC3)C[C@@H]2c2ccccc2)CC1
5. CCCN(c1ncc(C(F)(F)F)cn1)C1CCN(C[C@H]2CN([C@H](CC3CCC3)C(=O)O)C[C@@H]2c2cccc(F)c2)CC1
6. CCCN(c1nccc(OC)n1)C1CCN(C[C@H]2CN([C@H](CC3CCC3)C(=O)O)C[C@@H]2c2cccc(F)c2)CC1

1: 7.64; 2: 8.05; 3: 8.74; 4: 7.68; 5: 9.30; 6: 9.10

The measurements presented in this section are drawn from ChEMBL document CHEMBL1136548.
